tgt: T1, hMSLN-His-Avi (human, UniProt Q13421 296-598, single biotin on the Avi tag in the biotinylated form)
T1 construct: Monomeric; also called human MSLN-His-Avi; hMSLN-Avi-His
test: ratio of SPR KDs
Measured KD ratio in solution/immobilised human MSLN accompanies every entry in the list below.
# print the numeric value only

>>> observedvalue("FS22-172-003-AA/FS28-256-012 (bispecific antibody, human IgG1, kappa, L234A L235A, V domains shown, IgG1 mAb^2 with LALA) VH: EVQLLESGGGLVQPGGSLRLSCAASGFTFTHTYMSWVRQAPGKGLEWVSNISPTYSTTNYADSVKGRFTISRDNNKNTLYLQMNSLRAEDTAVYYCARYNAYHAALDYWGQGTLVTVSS VL: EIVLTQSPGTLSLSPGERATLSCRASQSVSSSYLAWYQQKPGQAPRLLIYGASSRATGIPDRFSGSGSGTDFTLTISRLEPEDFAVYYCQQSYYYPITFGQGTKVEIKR")
259

Continue with the binder presented below.
For FS22-172-003-AA/FS28-256-027 (bispecific antibody, human IgG1, kappa, L234A L235A, V domains shown, IgG1 mAb^2 with LALA) VH: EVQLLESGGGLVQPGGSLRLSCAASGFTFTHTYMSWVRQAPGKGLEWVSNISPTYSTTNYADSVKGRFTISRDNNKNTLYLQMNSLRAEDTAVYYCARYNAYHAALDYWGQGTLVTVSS VL: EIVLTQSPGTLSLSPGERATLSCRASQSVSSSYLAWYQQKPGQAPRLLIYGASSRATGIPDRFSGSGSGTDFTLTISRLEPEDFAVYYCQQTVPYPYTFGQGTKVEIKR , write its KD ratio in solution/immobilised human MSLN.
7
